tested on: MCF7; experiment: Cell cycle arrest in human MCF7 cells assessed as accumulation at G0/G1 phase after 48 hrs by flow cytometry (reference value: 62.79 +/- 1.30 %); format: functional
Measured attribute: Activity (%)
Reply with just the number (in %).

These solved cases illustrate the format of a correct answer.
                                   compound  measured_attribute  result
0  Clc1nc(Cl)c2ncn(CC3CSc4ccccc4O3)c2n1 (racemic)            Activity   45.28
1  Brc1ncnc2c1ncn2CC1COc2ccccc2O1 (racemic)            Activity   53.02
2  Clc1ncnc2c1ncn2CC1CSc2ccccc2O1 (racemic)            Activity   62.87

Let us move to another entry and its Activity.
I would be grateful if you could share the reported Activity for Brc1ncnc2c1ncn2CC1CSc2ccccc2O1 (racemic) .
51.56
